System: Acetylcholinesterase (Electrophorus electricus) | Read-out: IC50
Sequence (O42275 whole entry): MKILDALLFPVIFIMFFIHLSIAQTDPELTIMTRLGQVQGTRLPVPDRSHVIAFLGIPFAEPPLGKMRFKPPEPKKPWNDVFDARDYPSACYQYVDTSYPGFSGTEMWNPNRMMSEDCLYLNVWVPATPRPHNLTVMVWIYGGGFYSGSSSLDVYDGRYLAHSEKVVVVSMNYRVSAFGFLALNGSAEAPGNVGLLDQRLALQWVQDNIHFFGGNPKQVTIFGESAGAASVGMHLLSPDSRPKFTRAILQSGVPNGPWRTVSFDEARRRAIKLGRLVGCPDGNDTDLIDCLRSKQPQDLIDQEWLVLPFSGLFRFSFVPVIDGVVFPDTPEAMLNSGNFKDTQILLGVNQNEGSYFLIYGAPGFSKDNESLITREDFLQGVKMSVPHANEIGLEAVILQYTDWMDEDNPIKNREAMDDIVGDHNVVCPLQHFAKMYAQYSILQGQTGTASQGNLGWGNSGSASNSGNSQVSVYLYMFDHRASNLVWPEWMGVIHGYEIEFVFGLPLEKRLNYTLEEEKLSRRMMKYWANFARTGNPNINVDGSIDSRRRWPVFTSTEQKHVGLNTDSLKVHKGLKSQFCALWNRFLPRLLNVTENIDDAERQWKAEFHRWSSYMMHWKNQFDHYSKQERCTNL
PROPERTY_MEASURED: IC50 (µM)

[
  {
    "COMPOUND": "CN1CCc2cc3c(c4c2[C@H]1Cc1ccccc1-4)OCO3",
    "TARGET_UNDER_TEST": "Acetylcholinesterase (Electrophorus electricus)",
    "TEST_RESULT": 8.32
  },
  {
    "COMPOUND": "COc1ccc2c(c1OC)[C@@H](O)[C@@H]1c3c(cc4c(c3-2)OCO4)CCN1C",
    "TARGET_UNDER_TEST": "Acetylcholinesterase (Electrophorus electricus)",
    "TEST_RESULT": 4.3
  },
  {
    "COMPOUND": "COc1ccc2c(c1OC)C[C@@H]1c3c(cc4c(c3-2)OCO4)CCN1C",
    "TARGET_UNDER_TEST": "Acetylcholinesterase (Electrophorus electricus)",
    "TEST_RESULT": 10.5
  },
  {
    "COMPOUND": "COc1ccc2c(c1)C[C@@H]1c3c(cc4c(c3-2)OCO4)CCN1C",
    "TARGET_UNDER_TEST": "Acetylcholinesterase (Electrophorus electricus)",
    "TEST_RESULT": 11.9
  },
  {
    "COMPOUND": "CN1CCc2cc3c(c4c2c1cc1ccccc14)OCO3 [DEHYDROROEMERINE]",
    "TARGET_UNDER_TEST": "Acetylcholinesterase (Electrophorus electricus)",
    "TEST_RESULT": 1.21
  },
  {
    "COMPOUND": "COc1cccc2c1[C@@H](O)[C@@H]1c3c(cc4c(c3-2)OCO4)CCN1C",
    "TARGET_UNDER_TEST": "Acetylcholinesterase (Electrophorus electricus)",
    "TEST_RESULT": 6.12
  },
  {
    "COMPOUND": "COc1c2c3c(c4c1OCO4)-c1ccccc1C[C@H]3N(C)CC2",
    "TARGET_UNDER_TEST": "Acetylcholinesterase (Electrophorus electricus)",
    "TEST_RESULT": 39.8
  }
]

====

Form field: EC50 (one value per entry).
# TARGET_UNDER_TEST: 5-hydroxytryptamine receptor 2C (Homo sapiens, UniProt P28335)
# METHOD_SUMMARY: Partial agonist activity at human 5-HT2C stably transfected in HEK293T cells measured after 18 to 24 hrs by FLIPR assay
# Assay type: functional, cell-based
PROPERTY_MEASURED: EC50 (nM)

[
  {
    "COMPOUND": "COc1cc2c3c(c1OC)-c1ccccc1CC3NCC2 (configuration not stated) [NORNUCIFERINE]",
    "TEST_RESULT": 308
  },
  {
    "COMPOUND": "COc1c(O)cc2c3c1-c1ccccc1C[C@H]3NCC2 [(-)-ASIMILOBINE]",
    "TEST_RESULT": 653
  }
]

====

# TARGET_UNDER_TEST: 5-hydroxytryptamine receptor 2C (Homo sapiens, UniProt P28335)
# Sequence (P28335 whole entry): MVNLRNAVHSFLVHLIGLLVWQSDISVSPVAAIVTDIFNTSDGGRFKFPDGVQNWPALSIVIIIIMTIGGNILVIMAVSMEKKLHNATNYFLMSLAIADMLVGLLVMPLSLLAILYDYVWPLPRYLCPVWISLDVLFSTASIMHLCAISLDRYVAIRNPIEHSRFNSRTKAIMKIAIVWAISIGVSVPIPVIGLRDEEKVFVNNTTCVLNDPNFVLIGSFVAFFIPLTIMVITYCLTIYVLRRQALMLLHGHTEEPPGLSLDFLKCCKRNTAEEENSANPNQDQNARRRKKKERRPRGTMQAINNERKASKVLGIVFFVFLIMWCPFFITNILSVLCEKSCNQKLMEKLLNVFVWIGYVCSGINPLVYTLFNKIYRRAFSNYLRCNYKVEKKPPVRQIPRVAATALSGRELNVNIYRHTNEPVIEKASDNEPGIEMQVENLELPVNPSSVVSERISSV
# METHOD_SUMMARY: Agonist activity at recombinant human 5-HT2C stably expressed in human T-REx-293 cells measured after 60 mins by FLIPR assay
# Assay type: functional, cell-based
pEC50: −log10 of the molar value.

[
  {
    "MOLECULE": "COc1ccc2c3c1-c1ccccc1CC3NCC2 (stereo unspecified)",
    "pEC50": 6.99
  }
]

====

# TARGET_UNDER_TEST: 5-hydroxytryptamine receptor 2C (Homo sapiens, UniProt P28335)
# METHOD_SUMMARY: Antagonist activity at 5-HT2C (unknown origin)
pIC50: −log10 of the molar value.

[
  {
    "COMPOUND": "COc1cc2c3c(c1OC)-c1ccccc1CC3N(C)CC2 (stereo not drawn) [(+/-)-NUCIFERINE]",
    "pIC50": 6.88
  }
]

====

# TARGET_UNDER_TEST: UniProtKB P81908
# Sequence (P81908 whole entry): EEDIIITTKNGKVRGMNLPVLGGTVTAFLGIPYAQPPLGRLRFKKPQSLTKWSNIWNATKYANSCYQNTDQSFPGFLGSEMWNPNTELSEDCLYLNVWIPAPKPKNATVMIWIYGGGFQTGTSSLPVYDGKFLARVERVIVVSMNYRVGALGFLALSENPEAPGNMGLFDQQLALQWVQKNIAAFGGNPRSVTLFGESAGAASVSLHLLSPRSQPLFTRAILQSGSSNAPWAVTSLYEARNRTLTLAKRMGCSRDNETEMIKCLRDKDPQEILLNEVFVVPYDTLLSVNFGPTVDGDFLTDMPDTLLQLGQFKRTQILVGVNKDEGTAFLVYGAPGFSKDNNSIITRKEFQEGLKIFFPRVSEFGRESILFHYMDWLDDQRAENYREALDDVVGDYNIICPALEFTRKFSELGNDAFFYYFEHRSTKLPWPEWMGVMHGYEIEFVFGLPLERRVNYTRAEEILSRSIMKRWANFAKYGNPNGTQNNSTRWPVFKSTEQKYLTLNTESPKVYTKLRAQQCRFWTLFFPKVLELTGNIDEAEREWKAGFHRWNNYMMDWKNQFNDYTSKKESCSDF
# METHOD_SUMMARY: Inhibition of equine serum BuChE using BTCI as substrate pre-incubated for 10 mins followed by substrate addition measured after 5 mins by microplate reader analysis
Threshold-based label: IC50 under 20 µM gives YES, IC50 not under 20 µM gives NO.

[
  {
    "COMPOUND": "COc1ccc2c(c1OC)[C@@H](O)[C@@H]1c3c(cc4c(c3-2)OCO4)CCN1C",
    "TARGET_UNDER_TEST": "UniProtKB P81908",
    "CATEGORY_LABEL": "NO"
  },
  {
    "COMPOUND": "COc1ccc2c(c1OC)C[C@@H]1c3c(cc4c(c3-2)OCO4)CCN1C",
    "TARGET_UNDER_TEST": "UniProtKB P81908",
    "CATEGORY_LABEL": "YES"
  },
  {
    "COMPOUND": "COc1c2c3c(c4c1OCO4)-c1ccccc1C[C@H]3N(C)CC2",
    "TARGET_UNDER_TEST": "UniProtKB P81908",
    "CATEGORY_LABEL": "NO"
  },
  {
    "COMPOUND": "CN1CCc2cc3c(c4c2[C@H]1[C@H](O)c1ccccc1-4)OCO3",
    "TARGET_UNDER_TEST": "UniProtKB P81908",
    "CATEGORY_LABEL": "YES"
  },
  {
    "COMPOUND": "COc1cc2c(cc1OC)-c1c3c(cc4c1[C@H](C2)N(C)CC4)OCO3 [DICENTRINE]",
    "TARGET_UNDER_TEST": "UniProtKB P81908",
    "CATEGORY_LABEL": "NO"
  }
]

====

# TARGET_UNDER_TEST: 5-hydroxytryptamine receptor 2B (Homo sapiens, UniProt P41595)
# Sequence (P41595 whole entry): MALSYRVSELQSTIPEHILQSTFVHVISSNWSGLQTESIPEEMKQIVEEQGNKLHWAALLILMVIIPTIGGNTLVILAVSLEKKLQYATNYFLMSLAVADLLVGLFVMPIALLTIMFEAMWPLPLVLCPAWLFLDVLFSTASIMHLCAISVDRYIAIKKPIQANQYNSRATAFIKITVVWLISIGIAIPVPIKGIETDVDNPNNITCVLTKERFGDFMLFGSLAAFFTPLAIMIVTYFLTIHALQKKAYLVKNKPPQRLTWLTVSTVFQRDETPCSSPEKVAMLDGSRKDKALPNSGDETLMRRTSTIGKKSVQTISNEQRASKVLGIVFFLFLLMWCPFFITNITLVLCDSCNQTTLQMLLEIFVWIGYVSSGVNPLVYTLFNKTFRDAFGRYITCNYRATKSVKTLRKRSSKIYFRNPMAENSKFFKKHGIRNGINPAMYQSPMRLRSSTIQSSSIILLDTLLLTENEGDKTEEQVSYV
# METHOD_SUMMARY: Agonist activity at 5-HT2B (unknown origin)

[
  {
    "MOLECULE": "Oc1cc2c3c(c1Cl)-c1ccccc1CC3NCC2 (stereo unspecified)",
    "TARGET_UNDER_TEST": "5-hydroxytryptamine receptor 2B (Homo sapiens, UniProt P41595)",
    "EC50 (nM)": 278
  }
]

Entry source: ChEMBL document CHEMBL5370537
